- measurement.notes: Second sacrificial agent testing protocol: paste air measurements with DDBS (0.0125 wt %) and rating
metric.name: B1 + 0.0125% DDBS + 0.1% SA (air entrainment)
Provide a numeric answer; units are not to be included.

Below, each entry is followed by its recorded B1 + 0.0125% DDBS + 0.1% SA (air entrainment) result.
{"columns": ["molecule", "val"],
 "data": [
  ["O=S(=O)([O-])c1ccc2cc(S(=O)(=O)[O-])ccc2c1.[Na+].[Na+] [2,6-naphthalene disulfonate Na]", 3.0],
  ["OCCO", 2.8],
  ["O=C([O-])c1ccccc1O.[Na+] [Sodium Salicylate]", 3.0],
  ["CC[N+](CC)(CC)CC.[OH-] [Tetraethyl ammonium hydroxide]", 3.0],
  ["CC(O)CNCC(C)O (stereo not drawn)", 5.5]
]}

Continue with the molecule presented below.
Query block: For CCOCCOC(C)=O [E.G. mono-ethyl ether acetate] , what is its reported B1 + 0.0125% DDBS + 0.1% SA (air entrainment)?
Result block: 4.7
